System: PmTbr T-box DNA-binding domain (GST fusion);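 further: 200 nM protein in PBS on universal arrays averaged over duplicate arrays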
Sequence: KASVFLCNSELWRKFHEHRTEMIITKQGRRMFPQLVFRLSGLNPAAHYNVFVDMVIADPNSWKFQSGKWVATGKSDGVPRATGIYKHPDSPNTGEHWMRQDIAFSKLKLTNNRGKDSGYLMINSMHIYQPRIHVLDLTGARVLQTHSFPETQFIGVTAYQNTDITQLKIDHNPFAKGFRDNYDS
assay notes: PBM E-score of 8-mer (E-score (dimensionless, -0.5 to 0.5)); higher = stronger binding preference
reported conditions: the construct has about 5 more residues each side
Over roughly 33,000 sequences, “E-score (dimensionless, -0.5 to 0.5)” has its median near -0.049; the highest 2% begin near 0.37. What follows is part of a selection rich in the highest values, with near analogues and random picks from the rest.
Each record's PBM E-score of 8-mer is compared with lo: < 0.008; mid: ≥ 0.008 and < 0.2; hi: ≥ 0.2 to give its class.

The following sequences have reported results that may help.
seq text: CAGCGTGA
cat: hi
//
seq text: AGATAGCT
cat: lo
//
seq text: AACACCCT
cat: hi
//
seq text: GGCTAGAC
cat: lo
//
seq text: AACATGAT
cat: lo

[Q] The entry to classify is GCCACCCC ; which class holds it?
[A] hi

[Q] Hi, small favor: classify ACGGTGAC by its PBM E-score of 8-mer when you get a moment.
[A] hi

[Q] Please report the category associated with GACCTTGA , nothing else.
[A] lo

[Q] Which bin should I file AAGTGCCA under?
[A] hi

[Q] Place this sequence in its band: ACGAATTG
[A] mid

[Q] Bin? CAGGTGAA
[A] mid

[Q] Hey, which category is ACTTGGAA in, do you know?
[A] lo

[Q] Each sequence maps to one class by PBM E-score of 8-mer. Which class for GCTCGCAC ?
[A] hi

[Q] Which of the defined bands does the recorded PBM E-score of 8-mer of CACCTTGC sit within?
[A] hi

[Q] Band for GCTCGCAA ?
[A] hi

[Q] For this sequence, which bin applies? AGCGTTCG
[A] hi

###

Tested on: PmTbr T-box DNA-binding domain (GST fusion);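 further: 200 nM protein in PBS on universal arrays averaged over duplicate arrays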
Sequence: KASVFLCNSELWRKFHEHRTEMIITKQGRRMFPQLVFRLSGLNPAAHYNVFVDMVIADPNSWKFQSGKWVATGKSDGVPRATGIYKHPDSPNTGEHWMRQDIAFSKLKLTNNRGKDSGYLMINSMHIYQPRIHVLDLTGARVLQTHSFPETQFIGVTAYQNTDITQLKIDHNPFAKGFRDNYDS
assay notes: PBM E-score of 8-mer (E-score (dimensionless, -0.5 to 0.5)); higher = stronger binding preference
reported conditions: target sequence: T-box / the construct has about 5 more residues each side
Over roughly 33,000 sequences, “E-score (dimensionless, -0.5 to 0.5)” has its median near -0.049; the highest 2% begin near 0.37. Many of the other results were omitted from the sample, so the highest values are more common in it than they were.
Provide the recorded PBM E-score of 8-mer for the entries that follow.
Answers are plain numbers.

seq text: GTAGGTAA
PBM E-score of 8-mer: -0.141
--
seq text: ATAGGTGG
PBM E-score of 8-mer: 0.26
--
seq text: ATAGGTGC
PBM E-score of 8-mer: 0.414

I need PBM E-score of 8-mer for every entry listed below, if you could help.
1. CTAGGTTC
2. GGCATGAA

[A]
[-0.0841, -0.0787]

###

Test system: PmTbr T-box DNA-binding domain (GST fusion);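 further: 200 nM protein in PBS on universal arrays averaged over duplicate arrays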
Sequence: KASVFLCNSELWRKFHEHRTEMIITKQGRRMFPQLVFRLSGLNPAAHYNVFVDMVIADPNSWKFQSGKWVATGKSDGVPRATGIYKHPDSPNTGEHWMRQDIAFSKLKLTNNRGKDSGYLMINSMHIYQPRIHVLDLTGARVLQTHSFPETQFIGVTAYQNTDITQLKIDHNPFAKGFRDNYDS
assay notes: PBM E-score of 8-mer (E-score (dimensionless, -0.5 to 0.5)); higher = stronger binding preference
reported conditions: target sequence: T-box / the construct has about 5 more residues each side
Whole data set: some 33,000 sequences, median “E-score (dimensionless, -0.5 to 0.5)” near -0.049, cut for the highest 2% near 0.37. The list comes from a sample in which the highest values are over-represented; it also holds close analogues and randomly drawn sequences.
Use 0.05 as the dividing line for PBM E-score of 8-mer, with the line itself on the True side and lower values as False.

seq text: CCCACAGG
cat: True
//
seq text: CGGTGTTA
cat: True
//
seq text: CCCAGATA
cat: False

[Q] # check: PBM E-score of 8-mer of ATGGTGTG is greater than or equal to 0.05
[A] True

[Q] Please tell me: is the sequence CAGCACAG at or over 0.05 in terms of PBM E-score of 8-mer?
[A] False

[Q] hey, is PBM E-score of 8-mer for this one >= 0.05? GTACAGTA
[A] True

[Q] Textbook exercise: given the entry ATGGTGGC , state whether its PBM E-score of 8-mer is greater than or equal to 0.05.
[A] True

###

System: PmTbr T-box DNA-binding domain (GST fusion);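 further: 200 nM protein in PBS on universal arrays averaged over duplicate arrays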
Sequence: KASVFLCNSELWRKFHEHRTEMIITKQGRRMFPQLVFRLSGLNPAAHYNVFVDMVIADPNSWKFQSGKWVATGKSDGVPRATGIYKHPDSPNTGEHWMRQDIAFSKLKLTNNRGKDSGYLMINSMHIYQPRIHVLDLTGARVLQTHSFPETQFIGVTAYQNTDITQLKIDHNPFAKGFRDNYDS
assay notes: PBM E-score of 8-mer (E-score (dimensionless, -0.5 to 0.5)); Tbr is Tbrain of the sea star Patiria miniata (Pm) or the sea urchin Strongylocentrotus purpuratus (Sp); higher = stronger binding preference
reported conditions: target sequence: T-box / the construct has about 5 more residues each side
In all, about 33,000 sequences were measured (“E-score (dimensionless, -0.5 to 0.5)”: median about -0.049, highest 2% from about 0.37 on). What follows is part of a selection rich in the highest values, with near analogues and random picks from the rest.
Values of PBM E-score of 8-mer greater than or equal to 0.2 map to MET; values below map to NOT MET.

seq text: CATCTATC
assayed system: PmTbr T-box DNA-binding domain (GST fusion);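 further: 200 nM protein in PBS on universal arrays averaged over duplicate arrays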
cat: NOT MET

seq text: CCGCTACG
assayed system: PmTbr T-box DNA-binding domain (GST fusion);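 further: 200 nM protein in PBS on universal arrays averaged over duplicate arrays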
cat: NOT MET

seq text: GTAGTCTA
assayed system: PmTbr T-box DNA-binding domain (GST fusion);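 further: 200 nM protein in PBS on universal arrays averaged over duplicate arrays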
cat: NOT MET

seq text: CCGACGCA
assayed system: PmTbr T-box DNA-binding domain (GST fusion);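 further: 200 nM protein in PBS on universal arrays averaged over duplicate arrays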
cat: NOT MET

[Q] Does GTCACAGA have a reported PBM E-score of 8-mer of at least 0.2?
[A] NOT MET

[Q] Please check the record AGTAGAGA and state if its PBM E-score of 8-mer is at or above 0.2.
[A] NOT MET

[Q] PBM E-score of 8-mer >= 0.2 for AGTGCCAA ?
[A] MET

[Q] Check this sequence for PBM E-score of 8-mer at or above 0.2: ACGATCTG
[A] NOT MET

[Q] Has ACACGTCG a recorded PBM E-score of 8-mer greater than or equal to 0.2?
[A] MET

[Q] Given the entry CCCACCCA , answer whether its PBM E-score of 8-mer meets or surpasses 0.2.
[A] NOT MET

[Q] For this sequence, is measured PBM E-score of 8-mer 0.2 or higher? CCTTCACG
[A] MET

[Q] Hi, just wondering whether AGATCGTA shows PBM E-score of 8-mer of 0.2 or higher.
[A] NOT MET

[Q] Is the recorded value of PBM E-score of 8-mer equal to or greater than 0.2 for this sequence? CGTGTCGC
[A] MET

[Q] I'd appreciate it if you could say whether TGGTGCAA has PBM E-score of 8-mer at least equal to 0.2.
[A] NOT MET

[Q] Check this sequence for PBM E-score of 8-mer at or above 0.2: GCTTCACA
[A] MET

[Q] Say whether CTAGATTC shows PBM E-score of 8-mer of 0.2 or more.
[A] NOT MET

[Q] Decide: PBM E-score of 8-mer of GAAGGTAC >= 0.2?
[A] NOT MET

[Q] Is it the case that ACACTACG has PBM E-score of 8-mer reaching or exceeding 0.2?
[A] MET

[Q] Please check the record AGTGTCTA and state if its PBM E-score of 8-mer is at or above 0.2.
[A] MET

[Q] Hello, I need to know if TAATGCGA has measured PBM E-score of 8-mer not below 0.2. Thanks!
[A] NOT MET

[Q] Does PBM E-score of 8-mer meet or surpass 0.2 for AAGCGCCC ?
[A] NOT MET

[Q] Entry GTCACACA : is its PBM E-score of 8-mer no less than 0.2?
[A] MET

[Q] Please indicate if the recorded PBM E-score of 8-mer for AACCTTAC meets or exceeds 0.2.
[A] NOT MET

[Q] # check: PBM E-score of 8-mer of ACGTACTC is greater than or equal to 0.2
[A] NOT MET

[Q] Tell me whether PBM E-score of 8-mer is at least 0.2 here: ATTGTCGC
[A] MET

[Q] PBM E-score of 8-mer >= 0.2 for ACTTTTCT ?
[A] NOT MET

[Q] In plain terms: is recorded PBM E-score of 8-mer at least 0.2 for GGGTGCAA ?
[A] MET

[Q] I'd appreciate it if you could say whether ACTTAAGA has PBM E-score of 8-mer at least equal to 0.2.
[A] NOT MET
